# credit: paper PMC10397247

- SYSTEM_NAME: T1, 4H2985-AA
- T1 chain: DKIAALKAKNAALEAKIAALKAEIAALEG
- TEST_PROTOCOL: two-hybrid library CCmax;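 also: natural log of median RNA to DNA barcode read ratio; higher means stronger binding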
- CONDITIONS_USED: mean of both orientations
RESULT_TYPE: interaction score
Answer using only a numeral; do not append any unit.

Which interaction score is listed for DKIAALEAKNAALKAEIAALKAKNAALKG [4H2512-AA] ?
0.303

What do you have for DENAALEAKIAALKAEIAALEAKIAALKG [4H1350-AA] ?
0.636

What do you have for DENAALKAKNAALKAEIAALEAEIAALEG [4H1985-AA] ?
-0.418

What do you have for DKIAALKAEIAALKAENAALEAKIAALKG [4H2646-AA] ?
-0.411

What do you have for DENAALKAENAALEAKIAALKAKIAALKG [4H1710-AA] ?
0.52

What do you have for DKIAALKAKIAALEAKNAALKAEIAALEG [4H2873-AA] ?
2.29

What do you have for DKIAALKAEIAALKAKNAALKAKNAALEG [4H2687-AA] ?
-1.59

What do you have for DENAALEAEIAALEAKIAALKAENAALKG [4H1068-AA] ?
-0.0876

What do you have for DKIAALEAENAALEAEIAALKAENAALEG [4H2187-AA] ?
-0.684

What do you have for DEIAALEAKIAALEAENAALEAKIAALKG [4H278-AA] ?
1.94

What do you have for DEIAALEAENAALKAKIAALKAEIAALEG [4H233-AA] ?
0.682

What do you have for DKIAALKAENAALKAEIAALEAKIAALKG [4H2758-AA] ?
1.59

What do you have for DEIAALEAEIAALKAKNAALKAEIAALEG [4H121-AA] ?
0.209
